MEASUREMENT_TARGET: Cysteinyl leukotriene receptor 2 (Homo sapiens, UniProt Q9NS75)
Sequence (Q9NS75 whole entry): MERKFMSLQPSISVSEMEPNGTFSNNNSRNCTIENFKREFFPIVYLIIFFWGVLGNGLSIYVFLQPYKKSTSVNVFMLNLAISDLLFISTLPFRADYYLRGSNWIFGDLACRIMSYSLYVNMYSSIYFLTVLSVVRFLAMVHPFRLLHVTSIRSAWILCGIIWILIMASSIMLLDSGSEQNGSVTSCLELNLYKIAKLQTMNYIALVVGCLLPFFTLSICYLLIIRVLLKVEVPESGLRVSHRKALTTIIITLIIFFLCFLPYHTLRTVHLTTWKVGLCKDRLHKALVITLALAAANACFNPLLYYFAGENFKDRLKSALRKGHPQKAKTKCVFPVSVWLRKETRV
ASSAY_PROTOCOL: Antagonist activity against CysLT2 receptor (unknown origin) expressed in HEK293 cells assessed as inhibition of LTD4-induced calcium mobilization pre-incubated for 10 mins before LTD4 addition by Fluo-4 AM dye based fluorimetric assay
MEASURED_ENDPOINT: IC50

// below: answered compounds
1) O=C(/C=C/c1c(C(=O)O)[nH]c2cc(Cl)cc(Cl)c12)OCc1ccccc1: > 100 µM
2) O=C(/C=C/c1c(C(=O)O)[nH]c2ccccc12)OCc1cccc(/C=C/c2ccc3ccc(Cl)cc3n2)c1: > 100 µM
3) O=C(/C=C/c1c(C(=O)O)[nH]c2cc(Cl)cc(Cl)c12)Oc1ccccc1: > 100 µM
4) O=C(O)c1[nH]c2ccccc2c1C(=O)Nc1cccc(/C=C/c2ccc3ccc(Cl)cc3n2)c1: 23 µM

(Q) I would be grateful if you could share the reported IC50 for O=C(CCc1c(C(=O)O)[nH]c2ccccc12)Nc1cccc(/C=C/c2ccc3ccc(Cl)cc3n2)c1 .
(A) 50 µM

(Q) Here is the next compound: O=C(/C=C/c1c(C(=O)O)[nH]c2ccccc12)Nc1cccc(/C=C/c2ccc3ccc(Cl)cc3n2)c1
(A) 58 µM

(Q) Here is the next compound: COc1cccc2c(/C=C/C(=O)Nc3cccc(/C=C/c4ccc5ccc(Cl)cc5n4)c3)c(C(=O)O)[nH]c12
(A) 15 µM

(Q) Here is the next compound: COc1ccc2c(/C=C/C(=O)Nc3cccc(/C=C/c4ccc5ccc(Cl)cc5n4)c3)c(C(=O)O)[nH]c2c1
(A) > 100 µM

(Q) Here is the next compound: O=C(/C=C/c1c(C(=O)O)[nH]c2cc(Cl)cc(Cl)c12)OC1CCCCC1
(A) > 100 µM
